Entry source: ChEMBL document CHEMBL1132088

Record form. Attribute: Activity. Fill in for each entry.
- targetSystem: Vitamin D3 receptor (Bos taurus)
- methodNotes: Affinity for bovine Vitamin D3 receptor
- Design: reference not given here

# Activity measured on Vitamin D3 receptor (Bos taurus) for item `C=C1/C(=C\C=C2/CCC[C@]3(C)[C@@H]([C@@H](C)[C@H](C)CCC(C)(C)O)CC[C@@H]23)C[C@@H](O)C[C@@H]1O` = 1100

# Activity measured on Vitamin D3 receptor (Bos taurus) for item `C=C1/C(=C\C=C2/CCC[C@]3(C)[C@@H]([C@H](C)CCCC(C)(C)O)CC[C@@H]23)C[C@@H](O)C[C@@H]1O` = 100

# Activity measured on Vitamin D3 receptor (Bos taurus) for item `C=C1/C(=C\C=C2/CCC[C@]3(C)[C@@H]([C@H](C)[C@@H](C)CCC(C)(C)O)CC[C@@H]23)C[C@@H](O)C[C@@H]1O` = 33

# Activity measured on Vitamin D3 receptor (Bos taurus) for item `C=C1/C(=C\C=C2/CCC[C@]3(C)[C@@H]([C@@H](C)[C@@H](C)CCC(C)(C)O)CC[C@@H]23)C[C@@H](O)C[C@@H]1O` = 0.4

# Activity measured on Vitamin D3 receptor (Bos taurus) for item `C=C1/C(=C\C=C2/CCC[C@]3(C)[C@@H]([C@H](C)[C@H](C)CCC(C)(C)O)CC[C@@H]23)C[C@@H](O)C[C@@H]1O` = 2
